# Species on record: Homo sapiens
# METHOD_SUMMARY: Selectivity ratio of IC50 for inhibition of human CE1 […]
PARAMETER_MEASURED: Ratio IC50

Answered cases to consult:
- ITEM_SMILES: "COc1cc2ccnc([C@@]3(C)OC(=O)c4c3ccc(OC)c4OC)c2cc1OC"
  PARAMETER_MEASURED: "Ratio IC50"
  OBSERVED_MEASUREMENT: 49.3
- ITEM_SMILES: "COc1cc2c(cc1OC)C([C@](C)(OC)c1ccc(OC)c(OC)c1O)=NCC2"
  PARAMETER_MEASURED: "Ratio IC50"
  OBSERVED_MEASUREMENT: 20
- ITEM_SMILES: "COc1cc2c(cc1OC)C([C@@H](C)c1ccc(OC)c(OC)c1O)=NCC2"
  PARAMETER_MEASURED: "Ratio IC50"
  OBSERVED_MEASUREMENT: 11.6
- ITEM_SMILES: "COc1cc2c(cc1OC)C([C@@](C)(OC)c1ccc(OC)c(OC)c1O)=NCC2"
  PARAMETER_MEASURED: "Ratio IC50"
  OBSERVED_MEASUREMENT: 10.8

In: Consider the molecule shown here: COc1cc2c(cc1OC)C([C@H](C)c1ccc(OC)c(OC)c1O)=NCC2 What is its recorded Ratio IC50?
Out: 14.1

In: Consider the molecule shown here: COc1cc2ccnc([C@]3(C)OC(=O)c4c3ccc(OC)c4OC)c2cc1OC What is its recorded Ratio IC50?
Out: 28.9

In: Consider the molecule shown here: COc1cc2cc[n+]3c(c2cc1OC)[C@](C)(O)c1ccc(OC)c(OC)c1C3 What is its recorded Ratio IC50?
Out: 7.6

In: Consider the molecule shown here: COc1cc2cc[n+]3c(c2cc1OC)[C@@](C)(O)c1ccc(OC)c(OC)c1C3 What is its recorded Ratio IC50?
Out: 21.8

* * *

Sequence of the target: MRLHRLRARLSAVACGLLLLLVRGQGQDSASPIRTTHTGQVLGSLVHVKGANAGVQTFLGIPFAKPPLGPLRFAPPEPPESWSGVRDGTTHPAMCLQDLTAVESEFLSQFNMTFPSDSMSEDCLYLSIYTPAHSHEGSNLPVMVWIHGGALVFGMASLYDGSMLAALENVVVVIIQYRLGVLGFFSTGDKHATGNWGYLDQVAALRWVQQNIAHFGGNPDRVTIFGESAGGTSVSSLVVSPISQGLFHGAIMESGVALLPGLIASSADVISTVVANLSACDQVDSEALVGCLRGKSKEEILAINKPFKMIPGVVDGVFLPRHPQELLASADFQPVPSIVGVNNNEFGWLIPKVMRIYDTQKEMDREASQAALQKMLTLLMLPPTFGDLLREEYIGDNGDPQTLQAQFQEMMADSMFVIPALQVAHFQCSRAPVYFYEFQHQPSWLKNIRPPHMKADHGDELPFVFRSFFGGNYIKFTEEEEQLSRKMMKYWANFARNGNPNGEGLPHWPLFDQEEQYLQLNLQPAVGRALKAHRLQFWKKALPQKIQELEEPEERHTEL
PARAMETER_MEASURED: IC50 (µM)
Give the quantity in µM, number only.

- ITEM_SMILES: "COc1cc2c(cc1OC)C([C@@H](C)c1ccc(OC)c(OC)c1O)=NCC2"
  IC50 (µM): 8.7
- ITEM_SMILES: "COc1cc2c(cc1OC)C([C@](C)(OC)c1ccc(OC)c(OC)c1O)=NCC2"
  IC50 (µM): 5
- ITEM_SMILES: "COc1cc2cc[n+]3c(c2cc1OC)[C@](C)(O)c1ccc(OC)c(OC)c1C3"
  IC50 (µM): 13.2

In: Consider the compound shown here: COc1cc2c(cc1OC)C([C@H](C)c1ccc(OC)c(OC)c1O)=NCC2 What is its recorded IC50?
Out: 7.1

In: Consider the compound shown here: COc1cc2ccnc([C@@]3(C)OC(=O)c4c3ccc(OC)c4OC)c2cc1OC What is its recorded IC50?
Out: 2

* * *

Observed pIC50, system Cocaine esterase (Homo sapiens, UniProt O00748).
# pIC50 is unitless: minus log10 of the molar concentration; print number only

Answered cases to consult:
- ITEM_SMILES: "COc1cc2cc[n+]3c(c2cc1OC)[C@@](C)(O)c1ccc(OC)c(OC)c1C3"
  OBSERVED_MEASUREMENT: 5.34
- ITEM_SMILES: "COc1cc2c(cc1OC)C([C@@](C)(OC)c1ccc(OC)c(OC)c1O)=NCC2"
  OBSERVED_MEASUREMENT: 5.03

Query molecule follows.
In: Consider the molecule shown here: COc1cc2ccnc([C@]3(C)OC(=O)c4c3ccc(OC)c4OC)c2cc1OC What is its recorded pIC50?
Out: 5.46
